Origin of measurements: the supplement of paper PMC9112550

Tested on: Escherichia coli TOP10
Assay: shrunken log2 fold change of peptide-encoding DNA abundance (4.5 h post-induction vs induction); higher = less antimicrobial activity (less host growth inhibition)
Settings: time post-induction: 4.5 h; library: site-saturation at positions 5, 18, 19, 20
measurement.name: shrunken log2 fold change
Enter a number only.

RRIRERPPRLPRPRPRPKRKPRP
0.25
RRIRIRPPRLPRPRPRPQQAPRP
0.0151
RRIRIRPPRLPRPRPRPIRNPRP
-0.236
RRIRVRPPRLPRPRPRPRRLPRP
0.135
RRIRQRPPRLPRPRPRPNPWPRP
0.0932

Could you now consider this next sequence?
Prompt line: // shrunken log2 fold change lookup, key: "RRIRKRPPRLPRPRPRPSHKPRP"
Response line: -0.262

====

System: Escherichia coli TOP10;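 also: peptides expressed intracellularly from a pBAD plasmid library in pooled LB shake-flask culture, induced with 0.3% L-arabinose, DNA abundance read by NGS, three biological replicates, DESeq2 with apeglm shrinkage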
Assay: shrunken log2 fold change of peptide-encoding DNA abundance (4.5 h post-induction vs induction); higher = less antimicrobial activity (less host growth inhibition)
Conditions: time post-induction: 4.5 h; library: site-saturation at positions 5, 18, 19, 20
shrunken log2 fold change values for the sequences below.
# respond with the number and nothing more

Answered cases to consult:
RRIRPRPPRLPRPRPRPHQDPRP
-0.362
RRIRPRPPRLPRPRPRPMKKPRP
-0.0723
RRIRNRPPRLPRPRPRPAEGPRP
0.0922
RRIRDRPPRLPRPRPRPKDTPRP
0.0607
RRIRTRPPRLPRPRPRPRHIPRP
-0.158

Prompt line: Given the sequence "RRIRQRPPRLPRPRPRPDSSPRP" , what is its reported shrunken log2 fold change?
Response line: 0.00797

Prompt line: Param item = "RRIRARPPRLPRPRPRPSPHPRP" ; retrieve measured shrunken log2 fold change.
Response line: 0.187

Prompt line: Look up shrunken log2 fold change: "RRIRVRPPRLPRPRPRPIMVPRP"
Response line: -0.219

Prompt line: Fill blank: measured shrunken log2 fold change of the sequence "RRIRKRPPRLPRPRPRPHMWPRP" is ____.
Response line: -0.174

Prompt line: May I ask what shrunken log2 fold change has been recorded for "RRIRMRPPRLPRPRPRPEWRPRP" ?
Response line: 0.829

Prompt line: Entry "RRIRFRPPRLPRPRPRPLGQPRP" : reported shrunken log2 fold change = ?
Response line: -0.187

Prompt line: Entry "RRIRCRPPRLPRPRPRPVRTPRP" : reported shrunken log2 fold change = ?
Response line: 0.39

Prompt line: Entry "RRIRPRPPRLPRPRPRPQQGPRP" has what shrunken log2 fold change?
Response line: 0.14

Prompt line: Requested field: shrunken log2 fold change. Item: "RRIRPRPPRLPRPRPRPERGPRP"
Response line: 0.575

Prompt line: Given the sequence "RRIRYRPPRLPRPRPRPMHFPRP" , what is its reported shrunken log2 fold change?
Response line: -0.00783

Prompt line: Given "RRIRKRPPRLPRPRPRPGEKPRP" , state its recorded shrunken log2 fold change.
Response line: 0.015

Prompt line: I have this sequence here, "RRIRLRPPRLPRPRPRPSNHPRP" , and I need its recorded shrunken log2 fold change.
Response line: -1.15

Prompt line: What shrunken log2 fold change value was documented for this sequence, "RRIRHRPPRLPRPRPRPKLWPRP" ?
Response line: 0.392

Prompt line: What value of shrunken log2 fold change has been recorded for this entry: "RRIRVRPPRLPRPRPRPDVTPRP"
Response line: -0.0394

Prompt line: # shrunken log2 fold change lookup, item "RRIRTRPPRLPRPRPRPWRYPRP"
Response line: 0.108

Prompt line: Need shrunken log2 fold change, item "RRIRPRPPRLPRPRPRPVHNPRP"
Response line: -0.038

Prompt line: Value lookup for shrunken log2 fold change; key = "RRIRERPPRLPRPRPRPNHLPRP"
Response line: 0.0486

Prompt line: Given "RRIRTRPPRLPRPRPRPQIRPRP" , state its recorded shrunken log2 fold change.
Response line: -0.312

Prompt line: # get_value(readout='shrunken log2 fold change', item= "RRIRLRPPRLPRPRPRPSNNPRP" )
Response line: -0.928

Prompt line: Which shrunken log2 fold change is listed for "RRIRLRPPRLPRPRPRPAHQPRP" ?
Response line: -0.0828
